Measured on: T1, Cynomolgus CD3 epsilon Protein, His Tag (Acrobiosystems, Cat #CDE-05226) (cynomolgus (Macaca fascicularis), UniProt Q95LI5 22-117)
T1 construct: also called monkey CD3e; not shown: His tag
T1 sequence: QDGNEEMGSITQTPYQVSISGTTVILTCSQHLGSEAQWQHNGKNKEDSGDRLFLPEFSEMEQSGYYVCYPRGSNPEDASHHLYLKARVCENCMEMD
Protocol details: SPR (Biacore), cynomolgus CD3e His tag
Catalogue of binders with associated koff
Quantity name: koff

| Binder | Result |
| --- | --- |
| 10A4-H1K2-IgG1-LALA (antibody, V domains shown, Humanized; human IgG1 with LALA mutations; also called H1K2 (humanized 10A4)) VH: QVQLVQSGAEVKKPGASVKVSCKASGYTFTSYYIHWVRQAPGQRLEFIGWIYPGNVNAKYNEKFKGRVTITTDKSASTAYMELSSLRSEDTAVYYCAIKGGNYDWGQGTLVTVSS VL: DVVMTQSPLSLPVTLGQPASISCQSSQSLLDSDGKTYLNWLQQRPGQSPRRLIYLVSKLGSGVPDRFSGSGSGTDFTLKISRVEAEDVGVYYCWQGTHFPRTFGGGTKLEIK | 0.000298 s⁻¹ |
| 1B1-H1K3-IgG1-LALA (antibody, V domains shown, Humanized; human IgG1 with LALA mutations; also called H1K3 (humanized 1B1)) VH: QVQLVQSGAEVKKPGASVKVSCKASGYTFTSYWMHWVRQAPGQGLEWIGNIYPDSGTTNYGEKFKTRVTLTVDTSTSTAYMELSSLRSEDTAVYYCTRDTSGQYYFDYWGQGTLVTVSS VL: DIVMTQSPDSLAVSAGERVTMNCKSSQSLLNSRTRKNYLAWYQHKPGQSPKLLIYWASTRESGVPDRFSGSGSGTDFTLTISSVQAEDVAVYYCVQSFSLRAFGGGTKLEIK | 0.000739 s⁻¹ |
| 1B1-H1K2-IgG1-LALA (antibody, V domains shown, Humanized; human IgG1 with LALA mutations; also called H1K2 (humanized 1B1)) VH: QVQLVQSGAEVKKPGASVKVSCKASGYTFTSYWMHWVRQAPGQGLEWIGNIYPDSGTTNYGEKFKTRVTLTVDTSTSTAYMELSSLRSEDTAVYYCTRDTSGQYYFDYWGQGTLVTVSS VL: DIVMTQSPDSLAVSAGERVTMNCKSSQSLLNSRTRKNYLAWYQHKPGQSPKLLIYWASTRESGVPDRFSGSGSGTDFTLTISSLQAEDVAVYYCVQSFSLRAFGGGTKVEIK | 0.00072 s⁻¹ |
